B1: Zinc finger MYM-type protein 6, residues 427 to 504; numbered along this chain, O95789 (parent)
chain: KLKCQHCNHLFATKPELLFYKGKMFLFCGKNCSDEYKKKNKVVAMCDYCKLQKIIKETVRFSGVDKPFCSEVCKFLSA

Variants of: B1
assay.name: abundance fitness (aPCA) (normalised: wild type 0, dead -1); higher = more abundant; growth selection in yeast, the domain comes from the species named
experimental.parameters: Homo sapiens
Reported abundance fitness values for the following variants.

mutation.notation: F75V
abundance fitness: 0.256

mutation.notation: C69S
abundance fitness: -0.539

mutation.notation: F75L
abundance fitness: 0.365

mutation.notation: K50S
abundance fitness: -0.422

mutation.notation: D47E
abundance fitness: -0.125

mutation.notation: V64F
abundance fitness: -0.448

mutation.notation: S33P
abundance fitness: -0.343

mutation.notation: G22S
abundance fitness: -0.049

mutation.notation: F25H
abundance fitness: -0.109

mutation.notation: K23C
abundance fitness: -0.172

mutation.notation: F75T
abundance fitness: 0.557

mutation.notation: Q52T
abundance fitness: 0.181

mutation.notation: R60N
abundance fitness: 0.366

mutation.notation: S70D
abundance fitness: -0.498

mutation.notation: F25K
abundance fitness: -0.067

mutation.notation: F61M
abundance fitness: 0.979

mutation.notation: L51Q
abundance fitness: 0.529

mutation.notation: I55A
abundance fitness: 0.243

mutation.notation: K39Y
abundance fitness: 0.024

mutation.notation: E35C
abundance fitness: -0.402

mutation.notation: C49M
abundance fitness: -0.677

mutation.notation: S77L
abundance fitness: -1.36

mutation.notation: M24L
abundance fitness: -0.109

mutation.notation: E35Y
abundance fitness: -0.108

mutation.notation: K50D
abundance fitness: -0.767

mutation.notation: F68W
abundance fitness: -0.651

mutation.notation: K38M
abundance fitness: -0.063

mutation.notation: K38Q
abundance fitness: -0.053

mutation.notation: G63P
abundance fitness: -0.201

mutation.notation: K66Y
abundance fitness: 0.215

mutation.notation: S62Q
abundance fitness: 0.316

mutation.notation: C49G
abundance fitness: -0.54

mutation.notation: C46I
abundance fitness: 0.329

mutation.notation: K30F
abundance fitness: -0.101

mutation.notation: P67E
abundance fitness: -0.562

mutation.notation: C49E
abundance fitness: -0.64

mutation.notation: E57M
abundance fitness: 0.605

mutation.notation: K66S
abundance fitness: -0.669

mutation.notation: F27M
abundance fitness: -0.066

mutation.notation: K23M
abundance fitness: -0.041

mutation.notation: C69K
abundance fitness: -0.637

mutation.notation: D34G
abundance fitness: -0.078

mutation.notation: Y36L
abundance fitness: -0.181

mutation.notation: K23L
abundance fitness: -0.067

mutation.notation: T58A
abundance fitness: -0.585

mutation.notation: G22V
abundance fitness: -0.255
